tested on: NCI/ADR-RES ovarian; experiment: NCI tumour cell line growth inhibition, 48 h; in the data active means GI50 below about 0.43 µM; inactive means the rest
Could you please pick one outcome from this set? active, inactive

Here are 5 molecules together with their reported answers.
CCN1C(=O)CCCc2c1ccc(Nc1ncc(Cl)c(NC3[C@@H](C(N)=O)[C@@H]4C=C[C@H]3C4)n1)c2OC (stereo partly drawn) ... inactive
O=C(CN1CCN(c2cc3c(cc2F)c(=O)c(C(=O)O)cn3C2CC2)CC1)Nc1nc(-c2ccc(Cl)cc2)cs1 ... inactive
COC1=C(C)C(=O)c2c(c(CCCl)c3n2CCC3O)C1=O (stereo not drawn) ... inactive
COc1ccccc1C1=C(Nc2ccccc2)C(=O)NC1=O ... inactive
Cc1ccc(C(NC(=O)c2ccccc2)c2ccc3cccnc3c2O)cc1 (stereo not drawn) ... active

Q: Which outcome was assigned to `CN(Cc1cccc(F)c1)c1ccc(CO)c(Cl)c1` in this test?
Ans: inactive

Q: And COc1cccc(-c2ccc3c(c2)C2CCN(Cc4ccccc4)C3C2)c1 (stereo not drawn) ?
Ans: inactive

Q: And `C=C1C(=O)O[C@H]2[C@H]1CC/C(COC(=O)CCSCCC(=O)OC/C1=C/CC[C@@]3(C)O[C@H]3[C@H]3OC(=O)C(=C)[C@@H]3CC1)=C\CC[C@@]1(C)O[C@@H]21` ?
Ans: inactive

---

test system: MDA-MB-435; experiment: NCI tumour cell line growth inhibition, 48 h
The reader will find reported TGI values listed item by item below.
Your answer should be a plain number; it is taken to be in µM.

See these solved cases before continuing.
CN(Cc1cccc(F)c1)c1ccc(CO)c(Cl)c1 ... 57.6
Oc1ccc(-c2nc3ccc4[nH]ncc4c3c3c2CCCC3)c(F)c1 ... 10.9
COc1cc2c(cc1OC)C(Sc1ccc(SC)cc1)c1c(nc(N)c(C#N)c1N)O2 (stereo not given) ... 3.23

We now examine a further molecule.
Q: TGI lookup needed for `O=[N+]([O-])c1ccc(Oc2nc(Nc3ccc(O[C@H]4CO[C@H]5[C@@H]4OC[C@@H]5O)c(Cl)c3)ncc2F)c(Cl)c1` , thanks.
Ans: 3.5

---

tested on: MDA-MB-435
The reader will find reported GI50 values listed item by item below.

See these solved cases before continuing.
CCOC(=O)c1c(C)n(Cc2ccccc2)c2c1cc(O)c1[nH]c(Cc3ccccc3)nc12 ... > 42.8 µM
Cc1ccc(C(NC(=O)c2ccccc2)c2ccc3cccnc3c2O)cc1 (stereo not given) ... 0.491 µM
Cc1cc(Nc2nc(-c3cccnc3)nc3ccccc23)n[nH]1 ... 0.647 µM
Cn1nc(-c2ccc(Cl)cc2)nc2c(=O)n(C)c(=O)nc1-2 ... 0.137 µM

Q: GI50 lookup needed for `Oc1ccc(O)c(-c2cc(-c3ccc(Cl)cc3)nn2-c2ccccc2)c1` , thanks.
Ans: 14.9 µM

Q: And CCOc1cc(Br)c(C(C)NC(=O)c2cccc(OC)c2)cc1OCC (stereo not given) ?
Ans: 2.16 µM

Q: And `FC(F)(F)c1ccc(-c2cnc(-n3cc(COCCN4CCCCC4)nn3)nc2NC2CCCCCC2)cc1` ?
Ans: 3.74 µM

---

tested on: CCRF-CEM leukemia; assay: NCI tumour cell line growth inhibition, 48 h
The reader will find reported TGI values listed item by item below.
Your answer should be a plain number; it is taken to be in µM.

See these solved cases before continuing.
O=C1c2ccccc2C(=O)c2c(O)c(NCCCNCCO)cc(O)c21 ... 15.5
C[N+](C)(C)CC1CCC/C1=N/O (stereo not given) ... 39.1
O=C(O)C1CCCCC1c1c2ccc(=O)c(O)c-2oc2c(O)c(O)ccc12 (stereo not given) ... 3.11

Q: TGI lookup needed for `COc1cccc2c1-c1c(c3ccc([N+](=O)[O-])cc3c(=O)n1CCCN)C2=O` , thanks.
Ans: 4.76
